# system_under_test: BChE in rat heart (Rattus norvegicus, UniProt Q9JKC1)
# Sequence (Q9JKC1 24-597): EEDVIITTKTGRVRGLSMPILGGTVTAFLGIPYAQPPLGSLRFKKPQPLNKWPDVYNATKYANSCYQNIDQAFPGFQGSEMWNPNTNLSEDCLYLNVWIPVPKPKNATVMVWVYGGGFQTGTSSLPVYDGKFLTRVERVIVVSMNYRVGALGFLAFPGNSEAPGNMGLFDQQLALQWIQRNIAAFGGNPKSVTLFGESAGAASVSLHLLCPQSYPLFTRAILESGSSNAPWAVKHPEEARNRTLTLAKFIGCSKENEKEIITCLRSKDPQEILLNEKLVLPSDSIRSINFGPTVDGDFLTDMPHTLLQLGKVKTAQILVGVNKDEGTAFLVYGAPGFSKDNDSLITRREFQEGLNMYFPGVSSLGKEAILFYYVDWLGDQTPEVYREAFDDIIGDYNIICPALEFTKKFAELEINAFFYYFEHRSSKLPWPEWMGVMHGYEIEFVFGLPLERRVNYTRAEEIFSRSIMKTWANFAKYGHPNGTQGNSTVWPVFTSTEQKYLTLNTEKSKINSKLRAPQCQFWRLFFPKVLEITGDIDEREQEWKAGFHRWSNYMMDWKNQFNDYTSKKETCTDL
measured_endpoint: pIC50
Numbers only, as −log10 of the molar value.

**Q:** Quick one: give measured pIC50 for CC(C)NP(=O)(NC(C)C)OP(=O)(NC(C)C)NC(C)C [iso-OMPA, tetraisopropylpyrophosphoramide]
**A:** 6.70
